These data points were gathered from ChEMBL document CHEMBL3046493.

molecular target: Nischarin (Rattus norvegicus); assay: Binding affinity to I1 imidazoline binding site in Rattus norvegicus (rat) PC12 cells
Sequence (Q4G017 whole entry): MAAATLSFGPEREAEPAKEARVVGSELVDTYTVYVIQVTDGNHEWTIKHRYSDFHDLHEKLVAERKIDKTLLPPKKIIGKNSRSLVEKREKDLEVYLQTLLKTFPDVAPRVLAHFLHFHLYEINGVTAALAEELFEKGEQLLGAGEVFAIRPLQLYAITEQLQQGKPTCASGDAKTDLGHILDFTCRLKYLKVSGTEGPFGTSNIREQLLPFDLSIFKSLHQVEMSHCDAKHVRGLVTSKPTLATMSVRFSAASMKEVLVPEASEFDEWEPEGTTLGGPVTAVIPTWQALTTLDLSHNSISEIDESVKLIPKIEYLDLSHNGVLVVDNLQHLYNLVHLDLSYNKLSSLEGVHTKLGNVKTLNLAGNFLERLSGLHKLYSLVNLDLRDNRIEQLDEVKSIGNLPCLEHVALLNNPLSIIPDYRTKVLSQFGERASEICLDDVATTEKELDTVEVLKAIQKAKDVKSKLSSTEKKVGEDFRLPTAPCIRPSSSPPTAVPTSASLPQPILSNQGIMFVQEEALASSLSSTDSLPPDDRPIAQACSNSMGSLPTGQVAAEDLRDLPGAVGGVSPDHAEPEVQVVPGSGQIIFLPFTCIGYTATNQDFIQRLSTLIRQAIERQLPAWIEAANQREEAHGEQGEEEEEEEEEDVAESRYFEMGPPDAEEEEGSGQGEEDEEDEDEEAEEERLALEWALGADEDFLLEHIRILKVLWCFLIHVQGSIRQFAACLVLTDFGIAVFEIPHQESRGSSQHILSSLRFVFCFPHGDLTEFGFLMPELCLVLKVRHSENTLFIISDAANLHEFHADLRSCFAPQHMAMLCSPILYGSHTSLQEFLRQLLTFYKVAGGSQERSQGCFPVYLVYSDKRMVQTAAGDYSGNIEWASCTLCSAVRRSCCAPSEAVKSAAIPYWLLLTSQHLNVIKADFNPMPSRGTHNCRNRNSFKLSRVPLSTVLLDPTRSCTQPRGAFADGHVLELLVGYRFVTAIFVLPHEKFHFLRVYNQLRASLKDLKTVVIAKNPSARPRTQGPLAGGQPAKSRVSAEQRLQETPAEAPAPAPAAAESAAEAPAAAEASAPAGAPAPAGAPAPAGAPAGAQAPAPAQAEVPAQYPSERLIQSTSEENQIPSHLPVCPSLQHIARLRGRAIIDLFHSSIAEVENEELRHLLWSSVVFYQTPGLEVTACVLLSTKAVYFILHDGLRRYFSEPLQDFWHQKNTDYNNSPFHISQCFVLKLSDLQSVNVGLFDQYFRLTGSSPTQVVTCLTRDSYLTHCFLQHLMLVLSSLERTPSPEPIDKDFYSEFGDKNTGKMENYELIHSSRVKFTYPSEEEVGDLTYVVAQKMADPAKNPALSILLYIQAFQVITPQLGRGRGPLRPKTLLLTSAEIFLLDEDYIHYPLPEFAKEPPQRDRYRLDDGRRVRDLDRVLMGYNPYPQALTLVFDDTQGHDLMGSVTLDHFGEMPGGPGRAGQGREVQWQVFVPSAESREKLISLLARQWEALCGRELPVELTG
MEASURED_PROPERTY: Ki (nM)
Answers are plain numbers, in nM.

Sample records with Ki:
>>> df
                   structure_smiles  measured_property  number
0         c1ccc2c(CC3=NCCN3)cccc2c1                 Ki     245
1     c1ccc(-c2ccccc2OCC2=NCCN2)cc1                 Ki    2.34
2          c1ccc2cc(C3=NCCN3)ccc2c1                 Ki    1.29
3       c1ccc(C2CC2)c(OCC2=NCCN2)c1                 Ki    1740
4     c1ccc(-c2ccccc2CCC2=NCCN2)cc1                 Ki    3240
5  c1ccc([C@H]2C[C@@H]2C2=NCCN2)cc1                 Ki    11.7
6        Clc1cccc2c1CN(NC1=NCCN1)C2                 Ki    6.92

Shifting focus to the compound that follows.
Value lookup for Ki; key = `c1ccc([C@@H]2C[C@H]2C2=NCCN2)cc1`
347

* * *

biological target: Nischarin (Rattus norvegicus); assay: Binding affinity to I1 imidazoline binding site in Rattus norvegicus (rat) PC12 cells
MEASURED_PROPERTY: Ki

In [3]: df
Out[3]:
             structure_smiles            experimental_target     result
0  Clc1cc(I)cc(Cl)c1N=C1NCCN1  Nischarin (Rattus norvegicus)  0.0339 nM

Parameter requested: Ki. Apply to each item below.
1. C[C@H](Oc1ccccc1-c1ccccc1)C1=NCCN1
2. C[C@@H](Oc1ccccc1-c1ccccc1)C1=NCCN1
3. C[C@@H](CC1=NCCN1)c1ccccc1
4. C1COC(NC(C2CC2)C2CC2)=N1
5. C1CN=C(NC(C2CC2)C2CC2)C1
6. c1ccc(NCC2=NCCN2)cc1
7. C[C@H](CC1=NCCN1)c1ccccc1

129 nM
3.98 nM
7240 nM
11.2 nM
513 nM
0.501 nM
589 nM

Parameter requested: Ki. Apply to each item below.
1. Clc1cccc(Cl)c1N=C1NCCN1
2. c1ccc(C(CC2=NCCN2)c2ccccc2)cc1
3. c1ccc(CCC2=NCCN2)cc1
4. c1ccc(-c2ccccc2NCC2=NCCN2)cc1
5. C(=C\c1ccccc1)/C1=NCCN1

1. 112 nM
2. 3090 nM
3. 3720 nM
4. 0.933 nM
5. 18.6 nM
